Reported values of pIC50 for individual entries
# assay overview: ABTS cation radical scavenging (734 nm)
# condition notes: read-out: ABTS IC50±SD
Convention used: pIC50 is expressed as -log10 of the molar concentration.

For the compound shown here, COC(=O)C=Cc1ccccc1OC(=O)c1cccnc1 , give the reported pIC50. 4.66

How about O=C(Oc1ccc2c(c1)OCO2)c1cccnc1 [Compound 2h, Benzo[1,3]dioxol-5-yl nicotinate] ? 4.79

How about O=C1O[C@H]([C@@H](O)CO)C(O)=C1O [Ascorbic acid, reference compound] ? 4.92

* * *

Reported values of viability at 30 µM for individual entries
# assay overview: MTT cell viability assay
# Format: cell-based
# condition notes: mouse, RAW 264.7 macrophage cells; 30 µM; control 100
Give just the numeric value; % need not be written.

molecule	viability at 30 µM / %
O=C(NCc1ccc2c(c1)OCO2)c1cccnc1 [Compound 2e]	74.8

// below: viability at 30 µM requested for another molecule
For the molecule shown here, COC(=O)/C=C/c1ccc(OC(=O)c2cccnc2)c(OC)c1 [Compound 2b] , give the reported viability at 30 µM. 68.5
